Test system: PPARg DBDmut IVT, anti-PPARg (DBD mutation: PPARg1 K132A/R137A, NR concentration 270 nM)
ASSAY_NAME: PBM binding z-score (relative to random genomic background probes); higher = stronger binding; sequences stand for … in GC…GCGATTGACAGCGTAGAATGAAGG
Each entry belongs to exactly one class, chosen by where its PBM binding z-score falls: lower segment (below -0.3), middle segment (-0.3 to below 0.5), upper segment (0.5 or more)

Form: Item = CATACTGGGCCATCAGGTCATTGATATCAACGTT ; Class = ? upper segment

Category of CTTACTGGGCCATCAGGTCATTGATATCAACGTT : upper segment

Which class holds TATACAGGGTCGAAGGCCAGAGTACGAATGTCGA ? middle segment

Please report the category associated with ATCTCTAGGTAATGTTCAGTGAAAGATCGATAGA , nothing else. upper segment

Which of the defined bands does the recorded PBM binding z-score of TCGAGTAGGTTACCAATGGGGCATCCAGCTTTCT sit within? lower segment

Textbook exercise: identify the category of the sequence given here, GCTCGGAGGAGAAGGTCAGAGCTTTGTCCGTAGA , according to its measured value. lower segment

Which class does GCTGCTAGGTCAGGCTGGTCAGCTAACGGGTACG fall in? lower segment

Place this sequence in its band: GGAACGAGGGCATAGTTGATAGCATCTGTCGACG middle segment

Into which category would you place TTACCACGGTGAAAGGTCGTTGATGCACGCCTTG ? upper segment

Input TCTTGTAGATCAATAGAGGTTTAGAAAGTGCGCT ; output its category middle segment

Using the reported PBM binding z-score, which band applies to GCTATGAGTTGAAAGGGCAACCGAATGATTCTCG ? lower segment

For the record TCTTGTAGAGCAGCAGGTTAAGAAAGCTGGCCAA , report the class its PBM binding z-score corresponds to. lower segment

Would you mind sorting TAGCCTAGGTCATTCAAGGGCCAGTATAGAAAGC into the appropriate category? middle segment

Dear colleague, I would appreciate it if you could identify the bin for AGATGTAGGTTAGCTGGGGTCATTCAGACTAGGC and reply at your convenience. middle segment

Record CCTCCGAGGACAACAGGAGGTCAGAGCTGCCAGA — which class? lower segment

Please indicate the class for TCATATAGGTAAGAGGTGAAAGTCGGTGTGGTAA based on its PBM binding z-score. upper segment

Categorize the following entry: TCTATCAGTTGATTAGGGCAACCGAAACAGCGGA upper segment

Hey, which category is GCTTACGGGTCAATGGTTATAGCATGAATAGAAT in, do you know? upper segment

Which of the defined bands does the recorded PBM binding z-score of TCTGCTAGGTCAGTTGGCCAGCTAACGAGCTGCC sit within? upper segment

# classify by PBM binding z-score band: TCATATAGCTAAAAGGTGAAAGTCGGTGTGGTAA middle segment

Class (by measured PBM binding z-score) for TCTCGCAGGACACGAAGGTCAGAGCTTTCCAGAG lower segment

State the class of the sequence shown: GCTATTCGTTGAAAGGGCAACCGAATGATTCTCG middle segment

Given GCTTCTAGATCAAGGTTAAGAAAGACTAAGCTAA , name the class its PBM binding z-score places it in. middle segment

Kindly state the category for this sequence: TATTGTAGATCAAGCAGGTTAAGAAAGCCTGAGT upper segment

Hey, which category is CCTGCTCGGTCATGGTCAGCTAATCTACAGTATG in, do you know? lower segment

// bin(item) where item = AGTCAAAGTTCATCTAGGTGACGTAAGATATGCT upper segment

Class for CCGAGTAGGTTATGGGACATTCAGGCAACGGTGA ? middle segment

Which category fits this record: TAGCCTAGGTAATGGGCCAGTATACCACGCGAAC lower segment

Using the reported PBM binding z-score, which band applies to ACTCGGAGGACATAGGTCAGAGCTACGCCAGTGA ? middle segment

Input CAAACTAGGTCACCGGAAGGGCAAAGTCCGCATG ; output its category upper segment

Classify this sequence: GGAACGAGGGCATTCGAATTGATAGCATGGCGAT middle segment

Category of TGTCAAAGTTCACAGGTAACGTAAGTATCCACAC : upper segment

Consider GCTAGCAAGCCATTTGGGTCACTCAATGACGGGC . To which PBM binding z-score class does it belong? lower segment

Which class does AGAATGAGGTTCTACGTAGATCAGGGAAGAAAGT fall in? upper segment

Lab note: sort TTACCAAGGTGAAGGGCGTTGATCCCTCTGTAGA into the matching PBM binding z-score band. middle segment

Note: place this sequence into its band. Item: CGTCCAAGGTCAGCAGGTCCGTGAAAGCGACGTG lower segment

For this sequence, which bin applies? CGTCAAAGTTCAACTAAGGTAACATAAAGCACGC upper segment

# bin lookup: classify AGTCAAAGTTCAGGACGAGGTGACGTAAAGCACG by its PBM binding z-score middle segment

Sort into band: ATCGAAAGGTGGAGGTGAGTATAGAGAAAGGGAA middle segment

Using the reported PBM binding z-score, which band applies to TAGCCTAGGTCTTGGGCCAGTATACCACGCGAAC ? lower segment

Band assignment needed for TTACCAAGGTGAAGGTCGTTCATCCCTCTGTAGA please. upper segment

Classify this sequence: AATACAGGGTTATCGTAGGCCAGAGTACGCACAG upper segment

Hey, which category is ACTAGCAGGCCAACTTTGGGTCACTCAAACAAAG in, do you know? middle segment

Each sequence maps to one class by PBM binding z-score. Which class for GCTCTTAGTTGAAAGGGCAACCGAATGATTCTCG ? lower segment

Hi there! Could you help me figure out the category for AATACAGGGTCATCGTAGGCCAGAGCACGCACAG please? upper segment

Please indicate the class for ACAGACAGGTGACTGAAGGTAACTCAGCTGGACG based on its PBM binding z-score. lower segment

Note: place this sequence into its band. Item: CCTGCTAGGTGATGGTCAGCTAATCTACAGTATG lower segment

Into which bin does this sequence go? CCGACTGGGGCAGAAAGGTGACCATACCATCCGG lower segment

Which class is correct for the following sequence? GCTTGTAGATCAAGGTTAAGAATGACTAAGCTAA middle segment

Please classify: CGTCCAAGGTCAAGGTCAGGGAAAGAGACTCGAA middle segment

Values from the supplement of paper PMC6555819
